# METHOD SUMMARY: Pharmacokinetic study of LGZGD components in plasma of normal and NAFLD rats after oral administration (UPLC-MS/MS)
# Type: in vivo, Male Sprague–Dawley rats
# PARTICULARS: Sprague-Dawley, rat; Normal group, male SD rats, oral LGZGD extract 23 g/kg, plasma, mean ± SD, n = 6
MEASURE: Tmax (min)
Numeric answer only, unit min assumed.

For this compound ( O=C(/C=C/c1ccc(O[C@@H]2O[C@H](CO)[C@@H](O)[C@H](O)[C@H]2O)cc1)c1ccc(O)cc1O [Isoliquiritin, isoliquiritin] ), measured Tmax is 36

----------
# METHOD SUMMARY: Stability of the seven components in rat plasma QC samples
# Assay type: physicochemical
# PARTICULARS: auto sampler, medium QC level, n = 6
I'd be grateful if you could share measured Stability during 24 h at 4°C, RE for these entries.
Numeric answer only, unit % assumed.

For this molecule ( `CC1(C)[C@@H](O)CC[C@]2(C)[C@H]3C(=O)C=C4[C@@H]5C[C@@](C)(C(=O)O)CC[C@]5(C)CC[C@@]4(C)[C@]3(C)CC[C@@H]12` ), measured Stability during 24 h at 4°C, RE is 6.7

For this molecule ( `O=C(O)/C=C/c1ccccc1` ), measured Stability during 24 h at 4°C, RE is 13.9

For this molecule ( `O=C(/C=C/c1ccc(O[C@@H]2O[C@H](CO)[C@@H](O)[C@H](O)[C@H]2O)cc1)c1ccc(O)cc1O` ), measured Stability during 24 h at 4°C, RE is 11.0

For this molecule ( C=C(CC[C@@H](C(=O)O)[C@H]1[C@H](O)C[C@@]2(C)C3=CC[C@H]4C(C)(C)[C@@H](O)CC[C@]4(C)C3=CC[C@]12C)C(C)C [Dehydrotumulosic acid, dehydrotumulosic acid] ), measured Stability during 24 h at 4°C, RE is 1.6

For this molecule ( `O=C1C[C@@H](c2ccc(O[C@@H]3O[C@H](CO)[C@@H](O)[C@H](O)[C@H]3O)cc2)Oc2cc(O)ccc21` ), measured Stability during 24 h at 4°C, RE is 5.4

For this molecule ( `CC1(C)[C@@H](O[C@H]2O[C@H](C(=O)O)[C@@H](O)[C@H](O)[C@H]2O[C@@H]2O[C@H](C(=O)O)[C@@H](O)[C@H](O)[C@H]2O)CC[C@]2(C)[C@H]3C(=O)C=C4[C@@H]5C[C@@](C)(C(=O)O)CC[C@]5(C)CC[C@@]4(C)[C@]3(C)CC[C@@H]12` ), measured Stability during 24 h at 4°C, RE is −5.6

For this molecule ( C=C1CCC[C@]2(C)C[C@]3(O)OC(=O)C(C)=C3C[C@@H]12 [Atractylenolide III, atractylenolide III] ), measured Stability during 24 h at 4°C, RE is 5.2

----------
# METHOD SUMMARY: Pharmacokinetic study of LGZGD components in plasma of normal and NAFLD rats after oral administration (UPLC-MS/MS)
# Assay type: in vivo, Male Sprague–Dawley rats
# PARTICULARS: male, Sprague-Dawley, rat, plasma, po, 23 g/kg, Normal group, male SD rats, oral LGZGD extract 23 g/kg, plasma, mean ± SD, n = 6
MEASURE: AUC(0-inf) (ng·h/mL)
Numeric answer only, unit ng·h/mL assumed.

For this molecule ( `O=C(O)/C=C/c1ccccc1` ), measured AUC(0-inf) is 10500

For this molecule ( `CC1(C)[C@@H](O)CC[C@]2(C)[C@H]3C(=O)C=C4[C@@H]5C[C@@](C)(C(=O)O)CC[C@]5(C)CC[C@@]4(C)[C@]3(C)CC[C@@H]12` ), measured AUC(0-inf) is 89600

For this molecule ( `O=C1C[C@@H](c2ccc(O[C@@H]3O[C@H](CO)[C@@H](O)[C@H](O)[C@H]3O)cc2)Oc2cc(O)ccc21` ), measured AUC(0-inf) is 115000

For this molecule ( C=C(CC[C@@H](C(=O)O)[C@H]1[C@H](O)C[C@@]2(C)C3=CC[C@H]4C(C)(C)[C@@H](O)CC[C@]4(C)C3=CC[C@]12C)C(C)C [Dehydrotumulosic acid, dehydrotumulosic acid] ), measured AUC(0-inf) is 175

For this molecule ( `O=C(/C=C/c1ccc(O[C@@H]2O[C@H](CO)[C@@H](O)[C@H](O)[C@H]2O)cc1)c1ccc(O)cc1O` ), measured AUC(0-inf) is 166

For this molecule ( `CC1(C)[C@@H](O[C@H]2O[C@H](C(=O)O)[C@@H](O)[C@H](O)[C@H]2O[C@@H]2O[C@H](C(=O)O)[C@@H](O)[C@H](O)[C@H]2O)CC[C@]2(C)[C@H]3C(=O)C=C4[C@@H]5C[C@@](C)(C(=O)O)CC[C@]5(C)CC[C@@]4(C)[C@]3(C)CC[C@@H]12` ), measured AUC(0-inf) is 82700

For this molecule ( C=C1CCC[C@]2(C)C[C@]3(O)OC(=O)C(C)=C3C[C@@H]12 [Atractylenolide III, atractylenolide III] ), measured AUC(0-inf) is 568
